Tested on: MDA-MB-231
TEST DESCRIPTION: NCI tumour cell line growth inhibition, 48 h
The source made the active and inactive calls. No stated cut-off is given here; in the data, active = GI50 up to about 1.1 µM and inactive = higher.
OBSERVABLE: GI50

>  <MOLECULE>
CC(C)(C)c1ccc(CN2CCN(C(c3ccccc3)c3ccc(Cl)cc3)CC2)cc1 (stereo not drawn)

>  <RESULT>
> 100 µM (inactive)

$$$$
>  <MOLECULE>
O=CC1=C(C(=O)OC(c2ccccc2)c2ccccc2)N2C(=O)[C@@H](NC(=O)Cc3cccs3)[C@H]2SC1

>  <RESULT>
> 100 µM (inactive)

$$$$
>  <MOLECULE>
O=[N+]([O-])c1cccc2nccc(NCCCO)c12

>  <RESULT>
23 µM (inactive)

$$$$
>  <MOLECULE>
O=[N+]([O-])/C=C1\COCc2cc3c(cc21)OCO3

>  <RESULT>
14.4 µM (inactive)

$$$$
>  <MOLECULE>
Cc1ccc2c(=O)c(C(=O)NNC(=S)NC3CCCCC3)c[nH]c2n1

>  <RESULT>
52.7 µM (inactive)

$$$$

Look up GI50 for this molecule: COc1ccc(N2C(=O)C3ON(C(C(N)=O)c4ccccc4)C(c4cc5ccccc5c5ccccc45)C3C2=O)cc1 (stereo not drawn)
> 50 µM (inactive)

Requested read-out: GI50. Entry: O=C1OC(c2ccccc2)=N/C1=C\c1ccc(F)cc1
> 100 µM (inactive)

For the molecule [O-][Cl+3]([O-])([O-])O.c1ccc(C2=NN2c2ccccc2)cc1 , what GI50 is on record?
> 100 µM (inactive)

// query GI50 value for entry COc1ccccc1C1C2=C(COC2=O)Oc2cc3c(cc21)OCO3 (stereo not drawn)
3.45 µM (inactive)

Could you share which GI50 value was measured for CCOC(=O)C1=C(c2ccccc2)C12N(Cc1ccccc1)C(=O)C2(c1ccccc1)c1ccccc1 (stereo not drawn) ?
29.9 µM (inactive)

====

Listed here are molecules together with their documented GI50.
Test system: UACC-257
TEST DESCRIPTION: NCI tumour cell line growth inhibition, 48 h
The source made the active and inactive calls. Rule as the data show it: active = GI50 up to about 1.1 µM and inactive = higher.

Looking for the measured GI50 of O=C(Oc1c(Br)cc(Br)cc1C(=O)Oc1ccccc1)C(=O)Oc1c(Br)cc(Br)cc1C(=O)Oc1ccccc1 , can you help?
39 µM (inactive)

Data request, read-out GI50, for O=C1c2cc3c(cc2CC12Cc1cc4c(cc1C2=O)CCC4)CCC3
> 100 µM (inactive)

Find the recorded GI50 belonging to CSC(SC)=C1C(=O)NN=C1C and report it.
> 100 µM (inactive)

What value of GI50 has been reported for the following molecule? COc1cc2cc(C(=O)N3CC(CCl)c4c3cc(NC(=O)C(C)(C)c3ccccc3[N+](=O)[O-])c3ccccc43)[nH]c2c(OC)c1OC (stereo not given)
6.65 µM (inactive)

Could you tell me which GI50 is on file for CC1=CC(=O)N(n2c(C)n[nH]c2=O)C1=O ?
> 100 µM (inactive)

====

System: NCI/ADR-RES
TEST DESCRIPTION: NCI tumour cell line growth inhibition, 48 h
Activity calls are given as the source filed them. No stated cut-off is given here; in the data, active = GI50 up to about 1.1 µM and inactive = higher.
Valid outcomes are listed here; reply with one: yes (1) (active), no (0) (inactive)

Solved cases (5 shown):
>  <COMPOUND>
O=C(NNCc1ccco1)c1cc2ccccc2[nH]1

>  <LABEL>
no (0)

$$$$
>  <COMPOUND>
COC(=O)C1(C)CC2C(C)(CCC3(C)C4=CC=C5C(=CC(=O)C(O)=C5C)C4(C)CCC23C)CC1O (stereo not given)

>  <LABEL>
yes (1)

$$$$
>  <COMPOUND>
COc1c(CC=C(C)C)c(O)c(C(CC(C)C)c2c(O)c(CC=C(C)C)c(O)c(C(C)=O)c2O)c(O)c1C(C)=O (stereo not given)

>  <LABEL>
yes (1)

$$$$
>  <COMPOUND>
CC(=O)N1N=C(N)CC1=O

>  <LABEL>
no (0)

$$$$
>  <COMPOUND>
CC(C)(C)c1ccc(O)c(C[N+](C)(C)C)c1

>  <LABEL>
no (0)

$$$$

# lookup: test call for O=C(Nc1ccccc1C(=O)NCc1ccccc1)/C(=C/c1ccccc1)NC(=O)c1ccccc1
no (0)

Would you mind telling me which call this test gave C=C(Cl)C(Cl)(CBr)CCC(Cl)C(C)C (stereo not given) ?
no (0)

Field: outcome | Entry: COc1ccc2c(CCNS(=O)(=O)c3ccccc3)c(C(C)=O)[nH]c2c1
no (0)

How did this test come out for CN(C)NC(=S)Nc1ccccc1Br ?
no (0)

Could you check what this test reported for N#Cc1c(-c2ccccc2)cc(Nc2cccc(C(F)(F)F)c2)n2c1nc1ccccc12 ?
no (0)

====

System: Hs-578T
TEST DESCRIPTION: NCI tumour cell line growth inhibition, 48 h
Calls of active or inactive are those of the source. Rule as the data show it: active = GI50 up to about 1.1 µM and inactive = higher.
Readings of GI50 for the listed compounds

Observe how each entry below is paired with its result.
>  <COMPOUND>
COc1cc(/C=C2\CCC(C)C3=C(c4cc(OC)c(OC)c(OC)c4)C(C#N)=C(N)OC32)cc(OC)c1OC (configuration not stated)

>  <GI50>
2.1 µM (inactive)

$$$$
>  <COMPOUND>
CC(=O)Oc1cc(Cl)c(C)c2c1[C@H]1CC[C@]3(C)[C@@H](OC(C)=O)CC[C@H]3[C@@H]1CC2

>  <GI50>
> 100 µM (inactive)

$$$$
>  <COMPOUND>
O=C(/C=C/c1ccccc1)CCC1C(=O)NC(=S)NC1=O

>  <GI50>
> 100 µM (inactive)

$$$$

Recorded GI50 for CC1=CC(=O)N(n2c(C)n[nH]c2=O)C1=O with Hs-578T, please?
> 100 µM (inactive)

Test system Hs-578T; read-out GI50; what value for O=C(CSc1nc2ccc([N+](=O)[O-])cc2s1)c1ccc2ccccc2c1 ?
89.5 µM (inactive)

Record NC(Cc1ccc(B(O)O)cc1)C(=O)NC(CO)CO (configuration not stated) : what is its GI50 with Hs-578T?
> 100 µM (inactive)

Query the reported GI50 for Hs-578T; item: O=Cc1c2ccccc2n2ccc3c4ccccc4[nH]c3c12
> 10 µM (inactive)

====

Below are GI50 values measured for HCT-15.

>  <COMPOUND>
N#CCC(=O)Nn1c(CC#N)nnc1Cc1ccccc1

>  <MEASUREMENT TARGET>
HCT-15

>  <GI50>
> 100 µM

$$$$
>  <COMPOUND>
COc1ccc2c(CCNS(=O)(=O)c3ccccc3)c(C(C)=O)[nH]c2c1

>  <MEASUREMENT TARGET>
HCT-15

>  <GI50>
> 75.2 µM

$$$$
>  <COMPOUND>
O=Cc1c2ccccc2n2ccc3c4ccccc4[nH]c3c12

>  <MEASUREMENT TARGET>
HCT-15

>  <GI50>
> 10 µM

$$$$
>  <COMPOUND>
Cc1ccc(N2C(=O)/C(=C3\Sc4c(nc(C)n(C)c4=O)N3c3ccccc3)SC2=S)cc1

>  <MEASUREMENT TARGET>
HCT-15

>  <GI50>
> 100 µM

$$$$
>  <COMPOUND>
O=C1c2cc3c(cc2CC12Cc1cc4c(cc1C2=O)CCC4)CCC3

>  <MEASUREMENT TARGET>
HCT-15

>  <GI50>
> 100 µM

$$$$
>  <COMPOUND>
COC(=O)C1=C(OC(=O)/C(=C/c2ccc(Cl)cc2)c2ccc(Cl)cc2)C(C(=O)OC)[C@]2(O)[C@@H](C(=O)OC)[C@H]1C[C@@H](c1ccccc1)[C@@H]2C(=O)OC (stereo partly specified)

>  <MEASUREMENT TARGET>
HCT-15

>  <GI50>
> 100 µM

$$$$
>  <COMPOUND>
CC(C)N(C(C)C)S(=O)(=O)CC12CCC(C/C1=N\O)C2 (stereo unspecified)

>  <MEASUREMENT TARGET>
HCT-15

>  <GI50>
> 100 µM

$$$$
>  <COMPOUND>
Cc1ccc(NC(=O)/C=C/c2ccccc2)c(C)c1

>  <MEASUREMENT TARGET>
HCT-15

>  <GI50>
> 100 µM

$$$$

Recorded GI50 for COC(=O)C1=C(C(=O)OC)SC(=C(/N=N/c2ccccc2)c2ccccc2)S1 with HCT-15, please?
> 100 µM

Checklist item: GI50 tested on HCT-15, entry COC(=O)[C@]1(C)CCCC2(C)C1CC[C@H]1C=C(C)[C@H]3CCC12C3 (stereo partly specified) , value?
> 100 µM

Given the entry COc1ccc(CCNCc2cccc(OC)c2OC)cc1OC , what GI50 was observed with HCT-15?
> 100 µM

GI50 of COc1ccc(C(=O)C(C(=O)C(=O)NCCCNC(=O)C(=O)C(C(=O)c2ccc(OC)cc2)c2ccc(OC)cc2)c2ccc(OC)cc2)cc1 (stereo unspecified) on HCT-15?
> 100 µM

Lab note: need GI50 with HCT-15 for entry COC1=CC(=O)c2c(c(-c3nc(C)cs3)cn2C)C1=O , please look it up.
1.28 µM

What measured GI50 is associated with COC(=O)C(C(=O)C(=O)NC1Nc2ccc(C)cc2S1)c1nc2ccc(Cl)cc2nc1O (stereo unspecified) on HCT-15?
> 100 µM

Test system HCT-15; read-out GI50; what value for c1ccc(C(=NNc2cnc3ccccc3n2)c2ccccn2)cc1 ?
0.424 µM

Under HCT-15: GI50 value of C=CCN(CC=C)CC(C(C)=O)C(c1ccccc1)c1c(O)c2ccccc2oc1=O (stereo unspecified) ?
> 100 µM

// fetch HCT-15 GI50 for CC(C(=O)c1ccncc1)c1ccccn1 (stereo unspecified)
> 100 µM
